biological target: T1, biotinylated goat anti-human kappa light chain; test: ELISA, positive control; note: test concentration or dose not given here
T1 construct: Positive control of the ELISA
Entries and their optical density values follow.
Write the answer as a number in OD, unit excluded.

Solved cases below.
binder	unitText	optical density
369_E04 (antibody, V domains shown, VH and VL only) VH: EVQLLESGGGLVQPGGSLRLSCAASGFTFSDYSMNWVRQAPGKGLEWVSGINYNSGYKSYADSVKGRFTISRDNSKNTLYLQMNSLRAEDTAVYYCARSATWHDTHLDYWGQGTLVTVSS VL: DIQMTQSPSSLSASVGDRVTITCRASQSILSYVNWYQQKPGKAPKLVIYAATSRASGVPSRFSGSGSGTDFTLTISSLQPEDFATYYCQQSYSLPLTFGGGTKVEIK	OD	3.52
365_A04 (antibody, V domains shown, VH and VL only) VH: EVQLLESGGGLVQPGGSLRLSCAASGFTFSDYSMNWVRQAPGKGLEWVSGINYNSGYTSYADSVKGRFTISRDNSKNTLYLQMNSLRAEDTAVYYCARSATWHDTHLDYWGQGTLVTVSS VL: DIQMTQSPSSLSASVGDRVTITCRASQSIVSYVNWYQQKPGKAPKLVIYAATSLASGVPSRFSGSGSGTDFTLTISSLQPEDFATYYCQQSYSTPLTFGGGTKVEIK	OD	3.28

Let's switch to this binder now.
Req: Look up optical density for this binder: 371_B05 (antibody, V domains shown, VH and VL only) VH: EVQLLESGGGLVQPGGSLRLSCAASGFTFSSYSMNWVRQAPGKGLEWVSGINYNSGYTSYADSVKGRFTISRDNSKNTLYLQMNSLRAEDTAVYYCARSATWHDTHLDYWGQGTLVTVSS VL: DIQMTQSPSSLSASVGDRVTITCRASQSILTYLNWYQQKPGKAPKLVIYAATSLASGVPSRFSGSGSGTDFTLTISSLQPEDFATYYCQQSDETPLTFGGGTKVEIK
Resp: 1.65
